Tested on: ERBB2
Conditions: concentration: 1 μM,replicates: in singlicate; n = 1;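 note: KINOMEscan kinase panel screen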
assay_metric: %Inh (%)
Unit % implied. Number only.

For orientation, consider the following solved cases.
> print(dat)
                                item.smiles  assay.metric  val
1  C[C@@H](Oc1cc(-n2cnc3ccc(-c4ccncc4)cc32)sc1C(N)=O)c1ccccc1Cl          %Inh   14
2        NC(=O)Nc1sc(-c2ccc(F)cc2)cc1C(N)=O          %Inh   15

Now take the following compound into account.
Query: Param item = CN(c1ccccc1CNc1nc(Nc2ccc3c(c2)CC(=O)N3)ncc1C(F)(F)F)S(C)(=O)=O ; retrieve measured %Inh.
Result: 0

* * *

Test system: YANK2
Construct: gene STK32B
Conditions: concentration: 1 μM,replicates: in singlicate; n = 1
assay_metric: %Inh (%)
Unit % implied. Number only.

For orientation, consider the following solved cases.
> print(dat)
                                    molecule  assay.metric  measurement.units  val
 1  CS(=O)c1ccc(-c2coc3ccc(-c4n[nH]c(=O)o4)cc23)cc1 (centres unmarked)          %Inh                  %   10
 2  Cc1ccc(C(=O)Nc2ccc(Oc3ccc4nc(NC(=O)C5CC5)cn4c3)c(F)c2)c(=O)n1-c1ccccc1          %Inh                  %    0
 3     O=C(Nc1n[nH]c2cc(-c3ccco3)ccc12)C1CC1          %Inh                  %    0
 4  OCCn1cc(-c2cnc3nnn(Cc4ccc5ncccc5c4)c3n2)cn1          %Inh                  %    0
 5  Cc1ccc(Nc2ccnc(Nc3ccc4c(c3)CS(=O)(=O)C4)n2)cc1O.Cl          %Inh                  %    0
 6           Cl.Nc1n[nH]c2cc(-c3ccccn3)ccc12          %Inh                  %    0
 7  COC(=O)c1cccc(NC(=O)NC2CCN(c3ccnc(Nc4cc(OC)c(OC)c(OC)c4)n3)C2)c1 (centres unmarked)          %Inh                  %    0
 8  COc1cc2ncn(-c3cc(OCC4CCCCC4)c(C(N)=O)s3)c2cc1OC          %Inh                  %    8
 9  COc1cc2c(Nc3ccc(NC(=O)c4ccccc4)cc3)ncnc2cc1OCCCN1CCOCC1          %Inh                  %    0
10  CC(=O)Nc1nc2cnc(Nc3cc(NC(=O)c4cccc(CC(C)(C)C#N)c4)ccc3C)nc2s1          %Inh                  %   12

Query: Param item = CN(c1ccc2c(c1)nc(NCc1ccc(F)cc1)n2C)c1ccnc(Nc2ccc(CS(C)(=O)=O)cc2)n1.Cl ; retrieve measured %Inh.
Result: 0

* * *

Test system: RIOK1
Conditions: concentration: 1 μM,replicates: in singlicate; n = 1
Documented %Inh across a set of molecules
Unit % implied. Number only.

> print(dat)
                                   molecule  assay.metric  measurement.units  val
1  FC(F)(F)c1cc(Br)cc(Nc2nccc(-c3cnn4ncccc34)n2)c1          %Inh                  %    0
2  O=C(Nc1cccc(C(F)(F)F)c1)c1cccc(Oc2ccc3nccn3n2)c1          %Inh                  %    0

Query: Value wanted: %Inh (RIOK1) of entry Cn1ccc2ncnc(Oc3ccc(NC(=O)Nc4cnn(C(C)(C)C)c4)c(Cl)c3)c21
Result: 4

Query: Try CC(C(=O)NC1CCN(c2ccnc(Nc3ccc(F)cc3)n2)C1)c1ccc(Cl)cc1 (stereo not drawn) next.
Result: 35

Query: Try O=C(Nc1ccccc1)c1cccc(Oc2ccc3nccn3n2)c1 next.
Result: 0

Query: Try COc1ccc(Nc2nccc(N3CCC(NC(=O)c4cccc(C#N)c4)C3)n2)cc1 (stereo not drawn) next.
Result: 34

Query: Try COc1cccc(CNC(=O)NC2CCN(c3ccnc(Nc4cc(OC)c(OC)c(OC)c4)n3)C2)c1 (stereo not drawn) next.
Result: 63

Query: Try Cn1ccc2ncnc(Oc3ccc(NC(=O)Nc4ccnc(C(F)(F)F)c4)c(Cl)c3)c21 next.
Result: 0

Query: Try Cc1ccc(Nc2ccnc(Nc3ccc4c(c3)CS(=O)(=O)C4)n2)cc1O.Cl next.
Result: 99.8

Query: Try C[C@@H](Oc1cc(-n2cnc3cc(-c4cnn(C)c4)ccc32)sc1C(N)=O)c1ccccc1Cl next.
Result: 100

Query: Try O=C(Nc1cccc(Oc2ccc3nccn3n2)c1)Nc1cccc(C(F)(F)F)c1 next.
Result: 0

Query: Try CNC(=O)c1ccccc1Nc1nc(Nc2cccc(CS(C)(=O)=O)c2)ncc1C.O=CO next.
Result: 97.9

Query: Try CCNCC(Cc1ccccc1)NC(=O)c1cc(Br)c(-c2ccnc3[nH]ccc23)s1.Cl.Cl (stereo not drawn) next.
Result: 61

Query: Try NC(=O)c1ccc(-c2cc3ncnc(SCC(=O)O)c3s2)cc1 next.
Result: 0

Query: Try Cc1ccc(C(=O)Nc2ccc(Oc3ccc4nc(NC(=O)C5CC5)cn4c3)c(F)c2)c(=O)n1-c1ccccc1 next.
Result: 0

Query: Try CN1CCN(CCCNc2nccc(-c3c(-c4ccc(F)cc4)nn4cc(C(N)=O)ccc34)n2)CC1 next.
Result: 46

Query: Try CC(=O)Nc1nc2cnc(Nc3cc(NC(=O)c4cccc(CC(C)(C)C#N)c4)ccc3C)nc2s1 next.
Result: 0
